Type: in vivo, human
APPLIED CONDITIONS: male, human, serum, po, 60 mg
ENDPOINT LABEL: tmax (min)
Numeric answer only, unit min assumed.

[in] What value of measured tmax is listed for Cn1c(=O)c2c(ncn2C)n(C)c1=O [Product 2, caffeine] ?
[out] 37.8

====

Assay type: in vivo, human
APPLIED CONDITIONS: male, human, serum, po, 60 mg
ENDPOINT LABEL: Cmax (ng/mL)
Respond numerically; units are ng/mL and should not be typed.

[in] May I ask what Cmax has been recorded for Cn1c(=O)c2c(ncn2C)n(C)c1=O [Product 2, caffeine] ?
[out] 2090

====

Type: in vivo, human
APPLIED CONDITIONS: male, human, serum, oral, 60 mg
ENDPOINT LABEL: AUC(0-t)
The reply should consist of the numeric value with the unit placed after it.

[in] Entry under review: Cn1c(=O)c2c(ncn2C)n(C)c1=O [Product 2, caffeine] . Reported AUC(0-t)?
[out] 5600 ng·h/mL
